Values were extracted from PubChem BioAssay (NCI).

System: HCT-116 colon
Experiment: NCI-60 one-dose screen, 48 h
Settings: 10 µM unless noted
Compounds without any hit were thinned out: in the full panel of roughly 83,000, 20% have a hit. Activity calls are given as the source filed them. How the source made its calls: active means growth percent below 10; inactive means the rest.
Labels: y = active, n = inactive

>>> label_value("CCOC(=O)C1=C(c2ccccc2)N=C2N(c3ccccc3)N=C(C(C)=O)N2C1c1ccc(Br)cc1 (stereo not given)")
"n"
>>> label_value("C#Cc1cccc(Nc2ncnc3ccc(-c4cnc(Cl)c(NS(C)(=O)=O)c4)cc23)c1")
"y"
>>> label_value("CN1/C(=C/C=C/c2n(Cc3ccc4ccccc4c3)c(Cl)c(Cl)[n+]2Cc2ccc3ccccc3c2)Oc2ccccc21")
"y"
>>> label_value("CNC(=O)c1cc(Oc2ccc3nc(NC(=O)Nc4ccc(F)cc4F)sc3c2)ccn1")
"n"
>>> label_value("CCCCCCCCCCCCCC[n+]1ccc2c(C)c3c(c(C)c2c1)c1cc(O)ccc1n3CC")
"y"
>>> label_value("COc1nc2ccccc2cc1/C=C1/C=C(c2ccccc2)NC1=O")
"n"
>>> label_value("O=C(Nc1ncc(Cc2ccc(Cl)cc2)s1)C1=NCCCCN1")
"n"
>>> label_value("CN1CCN(CCCNC(=O)c2c3c(n4ccccc24)C(=O)c2ncccc2C3=O)CC1")
"y"
>>> label_value("COC(=O)c1cc(-c2cc(OC)c(OC)c(OC)c2)[nH]c1N/N=C/c1c(Cl)cccc1Cl")
"y"
>>> label_value("COc1ccc(C(=O)C2OC3=C(C(=O)CC(C)(C)C3)C2c2cccc(Oc3ccccc3)c2)cc1 (stereo not given)")
"n"
>>> label_value("CCCNNC(=O)c1ccc(CNC(=O)/C=C/c2ccccc2)cc1")
"y"
>>> label_value("COc1cc2c(c(OC)c1OC)CCC(c1cccc(NC(=O)c3cccc(Cl)c3)c1)O2 (stereo not given)")
"n"
>>> label_value("COc1cc2c(c(OC)c1OC)CCC(c1cccc(C(=O)Nc3ccc([N+](=O)[O-])cc3)c1)O2 (stereo not given)")
"n"
>>> label_value("COc1ccc(-c2cn(Cc3ccc4c(Br)cc(Br)c(O)c4n3)nn2)cc1")
"n"
>>> label_value("Oc1ccc(C2OCCO2)c2cccnc12")
"y"
